These data points were gathered from patent US5631257A.

EXPERIMENTAL SYSTEM: 5-HT3 receptor (Mus musculus)
Construct: membrane fraction prepared from rat N1E-115 cells; endogenous in cells; host or cells: N1E-115 cells, membrane fraction
Sequence (P23979 24-483 isoform P23979-2 limits assumed): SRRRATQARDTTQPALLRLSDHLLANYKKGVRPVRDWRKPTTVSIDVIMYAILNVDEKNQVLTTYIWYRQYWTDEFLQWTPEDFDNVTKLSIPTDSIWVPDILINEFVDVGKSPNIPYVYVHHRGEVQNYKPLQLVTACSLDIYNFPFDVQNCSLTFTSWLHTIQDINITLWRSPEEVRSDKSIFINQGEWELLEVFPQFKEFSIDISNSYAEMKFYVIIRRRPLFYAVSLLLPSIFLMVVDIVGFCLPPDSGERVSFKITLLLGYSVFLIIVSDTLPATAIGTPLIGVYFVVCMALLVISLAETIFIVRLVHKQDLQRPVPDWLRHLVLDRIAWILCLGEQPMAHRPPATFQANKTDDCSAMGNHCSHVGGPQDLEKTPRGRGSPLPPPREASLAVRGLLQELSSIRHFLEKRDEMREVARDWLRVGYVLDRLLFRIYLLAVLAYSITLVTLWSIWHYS
ASSAY COMMENT: 5-HT3 receptor binding affinity (inhibition of [^3 H]-GR65630 binding)
STUDY CONDITIONS: 10^-7 M; membrane fraction from rat N1E-115 cells; read-out: Binding inhibitory ratio of [^3 H]-GR65630 at 10^-7 M
# inhibition at 0.1 µM listing for each entry below

COMPOUND: CN1CCN(c2nc3ccccc3o2)CC1
inhibition at 0.1 µM: 89.4%

Request: Reported inhibition at 0.1 µM for C[N+]1(C)CCCN(c2nc3ccccc3o2)CC1 : what is it?
Result: 44.4%

Request: Any idea what its inhibition at 0.1 µM is? The compound is CN1CCCN(c2nc3ccccc3o2)CC1
Result: 97.3%

Request: Sample C[N+]1(CCO)CCCN(c2nc3ccccc3o2)CC1 (centres unmarked) — what was its inhibition at 0.1 µM?
Result: 46%

Request: Param item = C=CC[N+]1(C)CCN(c2nc3ccccc3o2)CC1.[I-] ; retrieve measured inhibition at 0.1 µM.
Result: 52.8%
